target: CMY-2 (Klebsiella pneumoniae, UniProt Q48434); construct: made in house; host or cells: E. coli TOP10, plasmid pUCp24; test: biochemical; design: species or system Citrobacter spp.
Sequence (Q48434 21-381): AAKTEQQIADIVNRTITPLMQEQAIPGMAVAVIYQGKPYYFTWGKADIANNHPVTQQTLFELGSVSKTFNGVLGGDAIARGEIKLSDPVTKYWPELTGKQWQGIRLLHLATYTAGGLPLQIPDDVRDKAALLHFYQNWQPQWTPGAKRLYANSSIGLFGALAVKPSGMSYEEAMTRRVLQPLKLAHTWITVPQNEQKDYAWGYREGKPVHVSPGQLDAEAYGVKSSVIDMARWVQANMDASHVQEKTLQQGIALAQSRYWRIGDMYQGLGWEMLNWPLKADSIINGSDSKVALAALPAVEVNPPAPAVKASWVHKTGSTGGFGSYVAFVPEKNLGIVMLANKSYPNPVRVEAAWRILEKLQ
pIC50: −log10 of the molar value.
Metric: pIC50

{"columns": ["Molecule", "System", "Metric", "Qual", "Readout Value"],
 "data": [
  ["O=C(O)c1c(F)ccc2c1OB(O)[C@@H]1C[C@H]21 [Xeruborbactam, xeruborbactam]", "CMY-2 (Klebsiella pneumoniae, UniProt Q48434)", "pIC50", "=", 6.55],
  ["O=C(NC1CCNCC1)[C@@H]1CC[C@@H]2CN1C(=O)N2OS(=O)(=O)O [Relebactam, relebactam]", "CMY-2 (Klebsiella pneumoniae, UniProt Q48434)", "pIC50", "=", 6.23],
  ["NC(=O)[C@@H]1CC[C@@H]2CN1C(=O)N2OS(=O)(=O)O [Avibactam, avibactam]", "CMY-2 (Klebsiella pneumoniae, UniProt Q48434)", "pIC50", "=", 6.21],
  ["O=C(O)[C@H]1/C(=C/CO)O[C@@H]2CC(=O)N21 [Clavulanic acid, clavulanic acid]", "CMY-2 (Klebsiella pneumoniae, UniProt Q48434)", "pIC50", "<", 4.00],
  ["CC1=C[C@@H]2CN(C(=O)N2OS(=O)(=O)O)[C@@H]1C(N)=O [Durlobactam, durlobactam]", "CMY-2 (Klebsiella pneumoniae, UniProt Q48434)", "pIC50", "=", 8.40],
  ["O=C(NNC(=O)[C@@H]1CC[C@@H]2CN1C(=O)N2OS(=O)(=O)O)[C@@H]1CCCNC1 [Zidebactam, zidebactam]", "CMY-2 (Klebsiella pneumoniae, UniProt Q48434)", "pIC50", "=", 6.92],
  ["NCCONC(=O)[C@@H]1CC[C@@H]2CN1C(=O)N2OS(=O)(=O)O [Nacubactam, nacubactam]", "CMY-2 (Klebsiella pneumoniae, UniProt Q48434)", "pIC50", "=", 6.38],
  ["C[C@]1(Cn2ccnn2)[C@H](C(=O)O)N2C(=O)C[C@H]2S1(=O)=O [Tazobactam, tazobactam]", "CMY-2 (Klebsiella pneumoniae, UniProt Q48434)", "pIC50", "=", 4.70],
  ["O=C(O)C[C@@H]1CC[C@H](NC(=O)Cc2cccs2)B(O)O1 [Vaborbactam, vaborbactam]", "CMY-2 (Klebsiella pneumoniae, UniProt Q48434)", "pIC50", "=", 5.28]
]}

---

target: FOX-5 (Aeromonas allosaccharophila, UniProt Q9F4K3); test: IC50 of β-lactamase inhibitors, crude extract, FOX-5; format: biochemical
Sequence (Q9F4K3 entry or part of it): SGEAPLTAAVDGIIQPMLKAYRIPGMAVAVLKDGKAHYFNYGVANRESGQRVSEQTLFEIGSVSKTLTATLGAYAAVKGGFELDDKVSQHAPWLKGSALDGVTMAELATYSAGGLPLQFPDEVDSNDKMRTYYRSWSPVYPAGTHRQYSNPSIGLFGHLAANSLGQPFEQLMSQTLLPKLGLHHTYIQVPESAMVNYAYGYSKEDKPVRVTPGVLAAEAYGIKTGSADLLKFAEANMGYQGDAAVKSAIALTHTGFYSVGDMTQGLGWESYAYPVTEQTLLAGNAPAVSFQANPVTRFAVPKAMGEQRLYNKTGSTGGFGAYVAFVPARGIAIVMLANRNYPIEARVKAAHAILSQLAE
pIC50: −log10 of the molar value.
pIC50 of 6 or higher: Satisfied. Under 6: Not satisfied.

{"columns": ["Structure Smiles String", "System", "Label Class"],
 "data": [
  ["C[C@]1(Cn2ccnn2)[C@H](C(=O)O)N2C(=O)C[C@H]2S1(=O)=O", "FOX-5 (Aeromonas allosaccharophila, UniProt Q9F4K3)", "Not satisfied"],
  ["CC1=C[C@@H]2CN(C(=O)N2OS(=O)(=O)O)[C@@H]1C(N)=O", "FOX-5 (Aeromonas allosaccharophila, UniProt Q9F4K3)", "Satisfied"],
  ["NCCONC(=O)[C@@H]1CC[C@@H]2CN1C(=O)N2OS(=O)(=O)O", "FOX-5 (Aeromonas allosaccharophila, UniProt Q9F4K3)", "Not satisfied"],
  ["O=C(NC1CCNCC1)[C@@H]1CC[C@@H]2CN1C(=O)N2OS(=O)(=O)O", "FOX-5 (Aeromonas allosaccharophila, UniProt Q9F4K3)", "Not satisfied"],
  ["O=C(O)C[C@@H]1CC[C@H](NC(=O)Cc2cccs2)B(O)O1", "FOX-5 (Aeromonas allosaccharophila, UniProt Q9F4K3)", "Not satisfied"],
  ["O=C(O)[C@H]1/C(=C/CO)O[C@@H]2CC(=O)N21", "FOX-5 (Aeromonas allosaccharophila, UniProt Q9F4K3)", "Not satisfied"],
  ["O=C(O)c1c(F)ccc2c1OB(O)[C@@H]1C[C@H]21", "FOX-5 (Aeromonas allosaccharophila, UniProt Q9F4K3)", "Satisfied"]
]}
